methodDescription: pH-dependence of solubility in distilled water (HPLC)
Assay type: physicochemical
assaySetup: distilled water, 22 °C, aqueous buffer, thermodynamic from solid; pH 6.5 (product pH); read-out: Solubility in aqueous media
Procedure: A reversed phase gradient HPLC method was used for the analysis of besifloxacin solubility samples. The conditions are listed below: The solubility of besifloxacin HCl, lot 050956330, was determined in distilled water as a function of pH by adjusting the pH with 1 N NaOH. […] The pH of the suspensions was measured in the presence of excess solid prior to sampling. […] Sample concentration was monitored at varying time intervals to ensure complete equilibration. […]
metric: solubility

[
  {
    "compound": "N[C@@H]1CCCCN(c2c(F)cc3c(=O)c(C(=O)O)cn(C4CC4)c3c2Cl)C1 [besifloxacin free base]",
    "testValue": "~100 µg/mL"
  }
]

---

methodDescription: pKa and intrinsic solubility from fit of pH-solubility profile to Henderson-Hasselbach equation
Assay type: physicochemical
assaySetup: estimated from fit of pH-solubility profile; read-out: pKa of the carboxylic acid group (pKa1)

[
  {
    "chemicalSmiles": "N[C@@H]1CCCCN(c2c(F)cc3c(=O)c(C(=O)O)cn(C4CC4)c3c2Cl)C1",
    "pKa": 5.65
  }
]

---

methodDescription: pKa and intrinsic solubility from fit of pH-solubility profile to Henderson-Hasselbach equation
Format: physicochemical
assaySetup: distilled water (pH adjusted with 1 N NaOH), aqueous buffer; assumed in fit of pH-solubility profile; read-out: Intrinsic solubility
Source text: To determine pKas that were consistent with observed solubility behavior, the pH dependent solubility was fitted to the following expression: S=So*(10^pKa1-pH+10^pH-pKa2+1) where S=solubility So=intrinsic solubility (total of zwitterionic and neutral species) pKa1=dissociation constant for the carboxylic acid moiety pKa2=dissociation constant for the primary ammonium ion moiety
metric: solubility (µg/mL)

[
  {
    "chemicalSmiles": "N[C@@H]1CCCCN(c2c(F)cc3c(=O)c(C(=O)O)cn(C4CC4)c3c2Cl)C1",
    "testValue": 74
  }
]

---

methodDescription: pH-dependence of solubility in distilled water (HPLC)
Format: physicochemical
assaySetup: distilled water, aqueous buffer, thermodynamic from solid; pH 6.31; water, 22° C. ± 2° C.; reported as free base concentration; read-out: Solubility
Counter-ions that a name gives are not always drawn.

[
  {
    "compound": "N[C@@H]1CCCCN(c2c(F)cc3c(=O)c(C(=O)O)cn(C4CC4)c3c2Cl)C1 [besifloxacin HCl salt]",
    "solubility, µg/mL": 100
  }
]

---

methodDescription: pH-dependence of solubility in distilled water (HPLC)
Type: physicochemical
assaySetup: distilled water, aqueous buffer, thermodynamic from solid; pH 9.59; water, 22° C. ± 2° C.; reported as free base concentration; read-out: Solubility
Where a name gives a salt, the structure may show the parent alone.

[
  {
    "molecule": "N[C@@H]1CCCCN(c2c(F)cc3c(=O)c(C(=O)O)cn(C4CC4)c3c2Cl)C1 [besifloxacin HCl salt]",
    "solubility / µg/mL": 100
  }
]

---

methodDescription: pKa and intrinsic solubility from fit of pH-solubility profile to Henderson-Hasselbach equation
Format: physicochemical
assaySetup: distilled water, pH adjusted with 1 N NaOH, aqueous buffer; fit of pH-solubility profile; total of zwitterionic and neutral species; read-out: Intrinsic solubility (So)
Source text: To determine pKas that were consistent with observed solubility behavior, the pH dependent solubility was fitted to the following expression: S=So*(10^pKa1-pH+10^pH-pKa2+1) where S=solubility So=intrinsic solubility (total of zwitterionic and neutral species) pKa1=dissociation constant for the carboxylic acid moiety pKa2=dissociation constant for the primary ammonium ion moiety

[
  {
    "chemicalSmiles": "N[C@@H]1CCCCN(c2c(F)cc3c(=O)c(C(=O)O)cn(C4CC4)c3c2Cl)C1",
    "unitsSymbol": "µg/mL",
    "solubility": 74
  }
]

---

methodDescription: pH-dependence of solubility in distilled water (HPLC)
Type: physicochemical
assaySetup: distilled water, aqueous buffer, thermodynamic from solid; pH 8.14; water, 22° C. ± 2° C.; reported as free base concentration; read-out: Solubility
Counter-ions that a name gives are not always drawn.

[
  {
    "compound": "N[C@@H]1CCCCN(c2c(F)cc3c(=O)c(C(=O)O)cn(C4CC4)c3c2Cl)C1 [besifloxacin HCl salt]",
    "solubility, µg/mL": 80
  }
]

---

methodDescription: pH-dependence of solubility in distilled water (HPLC)
Type: physicochemical
assaySetup: distilled water, aqueous buffer, thermodynamic from solid; pH 9.63; water, 22° C. ± 2° C.; reported as free base concentration; read-out: Solubility
Where a name gives a salt, the structure may show the parent alone.

[
  {
    "molecule": "N[C@@H]1CCCCN(c2c(F)cc3c(=O)c(C(=O)O)cn(C4CC4)c3c2Cl)C1 [besifloxacin HCl salt]",
    "solubility [µg/mL]": 100
  }
]

---

methodDescription: pH-dependence of solubility in distilled water (HPLC)
Format: physicochemical
assaySetup: distilled water, aqueous buffer, thermodynamic from solid; pH 4.58; water, 22° C. ± 2° C.; reported as free base concentration; read-out: Solubility
Description: A reversed phase gradient HPLC method was used for the analysis of besifloxacin solubility samples. The conditions are listed below: The solubility of besifloxacin HCl, lot 050956330, was determined in distilled water as a function of pH by adjusting the pH with 1 N NaOH. […] The pH of the suspensions was measured in the presence of excess solid prior to sampling. […] Sample concentration was monitored at varying time intervals to ensure complete equilibration. […]
Where a name gives a salt, the structure may show the parent alone.
metric: solubility (µg/mL)

[
  {
    "molecule": "N[C@@H]1CCCCN(c2c(F)cc3c(=O)c(C(=O)O)cn(C4CC4)c3c2Cl)C1 [besifloxacin HCl salt]",
    "testValue": 710
  }
]

---

methodDescription: pKa and intrinsic solubility from fit of pH-solubility profile to Henderson-Hasselbach equation
Format: physicochemical
assaySetup: estimated from fit of pH-solubility profile; read-out: pKa of the primary amine (ammonium) group (pKa2)
From the text: To determine pKas that were consistent with observed solubility behavior, the pH dependent solubility was fitted to the following expression: S=So*(10^pKa1-pH+10^pH-pKa2+1) where S=solubility So=intrinsic solubility (total of zwitterionic and neutral species) pKa1=dissociation constant for the carboxylic acid moiety pKa2=dissociation constant for the primary ammonium ion moiety

[
  {
    "compound": "N[C@@H]1CCCCN(c2c(F)cc3c(=O)c(C(=O)O)cn(C4CC4)c3c2Cl)C1 [besifloxacin]",
    "pKa": 9.91
  }
]

---

methodDescription: pH-dependence of solubility in distilled water (HPLC)
Type: physicochemical
assaySetup: distilled water, aqueous buffer, thermodynamic from solid; pH 5.17; water, 22° C. ± 2° C.; reported as free base concentration; read-out: Solubility
Structures can show the parent of a compound that is named as a salt.

[
  {
    "compound": "N[C@@H]1CCCCN(c2c(F)cc3c(=O)c(C(=O)O)cn(C4CC4)c3c2Cl)C1 [besifloxacin HCl salt]",
    "solubility / mg/mL": 0.27
  }
]

---

methodDescription: pH-dependence of solubility in distilled water (HPLC)
Type: physicochemical
assaySetup: distilled water, aqueous buffer, thermodynamic from solid; pH 6.45; water, 22° C. ± 2° C.; reported as free base concentration; read-out: Solubility
Where a name gives a salt, the structure may show the parent alone.

[
  {
    "molecule": "N[C@@H]1CCCCN(c2c(F)cc3c(=O)c(C(=O)O)cn(C4CC4)c3c2Cl)C1 [besifloxacin HCl salt]",
    "unitsSymbol": "µg/mL",
    "solubility": 100
  }
]

---

methodDescription: pH-dependence of solubility in distilled water (HPLC)
Assay type: physicochemical
assaySetup: distilled water, aqueous buffer, thermodynamic from solid; pH 10.85; water, 22° C. ± 2° C.; reported as free base concentration; read-out: Solubility
Structures can show the parent of a compound that is named as a salt.

[
  {
    "compound": "N[C@@H]1CCCCN(c2c(F)cc3c(=O)c(C(=O)O)cn(C4CC4)c3c2Cl)C1 [besifloxacin HCl salt]",
    "solubility [µg/mL]": 850
  }
]
